Cited source for all entries: the supplement of paper PMC8253809

# Tested on: HGGX6 (H3.3 G34R paediatric high-grade glioma line)
# protocolDetails: growth inhibition (% activity, log2 RLU normalised to DMSO / staurosporine); higher = more growth inhibition
# conditionSet: 33 µM
Record form. Attribute: growth inhibition. Fill in for each entry.
Kindly answer with a numeric value in %, unit omitted.

Q. Query (compound): CN1CCN(CCCN2c3ccccc3Sc3ccc(C(F)(F)F)cc32)CC1 ; field requested: growth inhibition
A. 8.55

Q. Query (compound): CCC(=O)O[C@]1(C(=O)SCF)[C@H](C)C[C@H]2[C@@H]3C[C@H](F)C4=CC(=O)C=C[C@]4(C)[C@@]3(F)[C@@H](O)C[C@@]21C ; field requested: growth inhibition
A. -0.734

Q. Query (compound): COc1ccc2cc1Oc1ccc(cc1)C[C@H]1c3c(cc4c(c3Oc3cc5c(cc3OC)CCN(C)[C@@H]5C2)OCO4)CCN1C ; field requested: growth inhibition
A. 0.797

Q. Query (compound): O=c1ccn([C@@H]2O[C@H](CO)[C@@H](O)[C@H]2O)c(=O)[nH]1 ; field requested: growth inhibition
A. -4.51

Q. Query (compound): CC(O)(P(=O)(O)O)P(=O)(O)O ; field requested: growth inhibition
A. 1.43

Q. Query (compound): CC(C)[C@H](N)C(=O)OCC(CO)OCn1cnc2c(=O)[nH]c(N)nc21 (stereo not given in full) ; field requested: growth inhibition
A. -2.7

Q. Query (compound): N[C@@H]1CONC1=O ; field requested: growth inhibition
A. 0.485

Q. Query (compound): COc1ccc([C@@H]2Sc3ccccc3N(CCN(C)C)C(=O)[C@@H]2OC(C)=O)cc1 ; field requested: growth inhibition
A. -0.0969

Q. Query (compound): Cc1cccc(Nc2ccncc2S(=O)(=O)NC(=O)NC(C)C)c1 ; field requested: growth inhibition
A. -0.821

Q. Query (compound): CN1CCN(C2=Nc3ccccc3Oc3ccc(Cl)cc32)CC1 ; field requested: growth inhibition
A. -0.859

Q. Query (compound): N[C@@H](CSCCCO)C(=O)O ; field requested: growth inhibition
A. -5.11

Q. Query (compound): O=C(O)[C@H](CC(=O)N1C[C@H]2CCCC[C@H]2C1)Cc1ccccc1 ; field requested: growth inhibition
A. 0.619

Q. Query (compound): O=C(O)Cc1cc(I)c(Oc2ccc(O)c(I)c2)c(I)c1 ; field requested: growth inhibition
A. 1.33

Q. Query (compound): O=C(O[C@H]1CN2CCC1CC2)N1CCc2ccccc2[C@@H]1c1ccccc1 ; field requested: growth inhibition
A. 0.102

Q. Query (compound): COc1ccc2cc([C@H](C)C(=O)O)ccc2c1 ; field requested: growth inhibition
A. 0.298

Q. Query (compound): Oc1ccc(OC2CCCCO2)cc1 (stereo not given) ; field requested: growth inhibition
A. 2.46

Q. Query (compound): COc1cccc2c1C(=O)c1c(O)c3c(c(O)c1C2=O)C[C@@](O)(C(C)=O)C[C@@H]3O[C@H]1C[C@H](N)[C@H](O)[C@H](C)O1 ; field requested: growth inhibition
A. 56.3

Q. Query (compound): CCn1nc(C(=O)O)c(=O)c2cc3c(cc21)OCO3 ; field requested: growth inhibition
A. 1.66

Q. Query (compound): CN1CCN(CCCN2c3ccccc3Sc3ccc(Cl)cc32)CC1 ; field requested: growth inhibition
A. 1.39

Q. Query (compound): O=C1CN2Cc3c(ccc(Cl)c3Cl)N=C2N1 ; field requested: growth inhibition
A. 9.62

Q. Query (compound): OCC(CO)N[C@H]1C[C@](O)(CO)[C@@H](O)[C@H](O)[C@H]1O ; field requested: growth inhibition
A. -0.0513

Q. Query (compound): O=C(O)c1cc(=O)c2ccccc2o1 ; field requested: growth inhibition
A. -1.13

Q. Query (compound): CCCCC1=NC2(CCCC2)C(=O)N1Cc1ccc(-c2ccccc2-c2nnn[nH]2)cc1 ; field requested: growth inhibition
A. 3.43

Q. Query (compound): Clc1ccc(C(Cn2ccnc2)OCc2ccc(Sc3ccccc3)cc2)c(Cl)c1 (stereo not given) ; field requested: growth inhibition
A. 8.32

Q. Query (compound): CC(C)c1nc(CN(C)C(=O)N[C@@H](CCN2CCOCC2)C(=O)N[C@H](CC[C@H](Cc2ccccc2)NC(=O)OCc2cncs2)Cc2ccccc2)cs1 ; field requested: growth inhibition
A. 1.63
